Recorded growth inhibition for the following molecules
test: antimalarial activity against Dd2 strain (AID 2302);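 also: 0% = DMSO untreated growth and 100% = chloroquine plus artemisinin killed control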; details: P. falciparum Dd2 in RBCs, LDH growth readout, 72 h; at 2 µM; active compounds read high
Return type: number; implicit unit %.

molecule	growth inhibition, %
COCC(=O)N(Cc1cccc(-c2ccc(CNCCc3ccccc3)cc2)c1)C1CCN(Cc2ccccc2)CC1	45

growth inhibition recorded for this molecule, Cc1c(C)c2c(c(C)c1O)CC[C@@](C)(C(=O)N1CCC(CN3CCC(c4c[nH]c5ccccc45)CC3)CC1)O2 , is 90

growth inhibition recorded for this molecule, OC(CNC12CC3CC(CC(C3)C1)C2)c1cccc(C(F)(F)F)c1 (centres undefined) , is 98

growth inhibition recorded for this molecule, Cc1[nH]c2ccccc2c1C1=CCN(CCCCC23CCCc4cccc(c42)NC3=O)CC1 (centres undefined) , is 91

growth inhibition recorded for this molecule, CCCCCOc1ccc(CC(C)NCC(O)c2cccc(Cl)c2)cc1 (centres undefined) , is 99

growth inhibition recorded for this molecule, CCCCCCC(CC)c1cc(O)c2c(c1)OC(C)(C)c1ccncc1-2 (centres undefined) , is 52

growth inhibition recorded for this molecule, O=C(C=Cc1ccccc1O)N1CCC(CN2CCC(c3c[nH]c4ccccc34)CC2)CC1 , is 43

growth inhibition recorded for this molecule, CC(C)CNCc1ccc(-c2ccc(CN(C(=O)Nc3ccccc3)C3CCN(Cc4ccccc4)CC3)cc2)cc1 , is 61

growth inhibition recorded for this molecule, COc1ccc(C(=O)c2ccc3[nH]cc(C4=CCN(C)CC4)c3c2)cc1 , is 55
